read-out: Vascular cell adhesion molecule 1 (VCAM1), VCAM1 (gene 7412); experiment: BSK_4H_VCAM1: BioMAP Diversity Plus: 4H Assay for Vascular cell adhesion molecule 1 (VCAM1) Biomarker Activity (AID 2283033); conditions: primary human endothelial cells (HUVEC); actives raise or lower the signal;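 as to outcome: cell-surface VCAM-1 protein measured by ELISA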
Active and inactive are the calls of the source. The calls were made as follows: active = hit-call score of the fitted dose curve at least 0.9, where 1 is the maximum; inactive = score below 0.9.
Pick from active, inactive when you respond.

Per the assay record, what outcome was assigned to Sc1nc2ccccc2s1 ?
inactive

Same read-out for CCCCCCCCCCC1CO1 (stereo not drawn) ?
active

Next molecule up: CC[N+](CC)(CC(=O)Nc1c(C)cccc1C)Cc1ccccc1
inactive

Moving on to the next molecule: C1CN(CCOCCN2CCOCC2)CCO1
inactive

Query Cc1cc(-n2nc3ccc(Cl)cc3n2)c(O)c(C(C)(C)C)c1 next
inactive

Also check CCC(C)=NO
inactive

Quick one: CN(C)c1ccc(C(c2ccccc2)c2ccc(N(C)C)cc2)cc1
active

Now consider COc1ccccc1Oc1c(NS(=O)(=O)c2ccc(C(C)(C)C)cc2)nc(-c2ncccn2)nc1OCCO and answer again.
inactive

Please give the result for COc1cc(CNC(=O)CCCC/C=C/C(C)C)ccc1O too.
inactive

One more molecule: Oc1cccc2ccccc12
inactive

Ok, now CC(C)C1OCCN1CCOC(=O)NCCCCCCNC(=O)OCCN1CCOC1C(C)C (stereo not drawn)
inactive

Queued: CN(C)Cc1cc(C(C)(C)C)c(O)c(C(C)(C)C)c1
inactive

Again, but for CN(C)CCC(c1ccc(Cl)cc1)c1ccccn1 (stereo not drawn)
active

###

read-out: Basic fibroblast growth factor (bFGF), FGF2 (gene 2247); test: BSK_MyoF_bFGF: BioMAP Diversity Plus: MyoF Assay for Basic fibroblast growth factor (bFGF) Biomarker Activity (AID 2284246); conditions: primary human lung fibroblasts
Activity calls are given as the source filed them. Rule for the calls: active = hit-call score of the fitted dose curve at least 0.9, where 1 is the maximum; inactive = score below 0.9.
Log the outcome using a class from true (1) (active), false (0) (inactive)

Check the results log: what was the call for COC(=O)/C=C\C(=O)OC ?
false (0)

Now try CCCCCCCCCCCCCCCCCC[N+](C)(C)C .
true (1)

Subsequent entry: O=C(C(=O)c1ccccc1)c1ccccc1
false (0)

What about CCCCCCCCCCC1CO1 (centres undefined) ?
true (1)

What would you report for CN(C)CCC(c1ccc(Cl)cc1)c1ccccn1 (centres undefined) ?
false (0)

# iterate: CCCCCCCCCC/C=C/C1CC(=O)OC1=O (centres undefined)
false (0)

For Cc1cc(-n2nc3ccc(Cl)cc3n2)c(O)c(C(C)(C)C)c1 then?
false (0)

What do we get for OC(C(F)(F)F)(C(F)(F)F)C(O)(C(F)(F)F)C(F)(F)F ?
false (0)

And what about the compound Sc1nc2ccccc2s1 ?
false (0)

###

experiment: ATG_M_19_CIS: Attagene CIS-FACTORIAL HepG2 Assay for M19 Transcription Factor (Internal Marker) (AID 2282939); conditions: HepG2 Attagene CIS-FACTORIAL M19 internal marker reporter; actives raise or lower the signal
Active and inactive are the calls of the source. Rule for the calls: active = hit-call score of the fitted dose curve at least 0.9, where 1 is the maximum; inactive = score below 0.9.
Reply using exactly one outcome from 1 = active, 0 = inactive

So what was the verdict on COC(=O)CCSCCC(=O)OC in this test?
0

Try this compound too: NC(N)=Nc1nc(CSCCC(N)=NS(N)(=O)=O)cs1
1

Same again, this time with CCC(=O)OCc1ccc(OC)cc1
0

Also, CCO[Si](OCC)(OCC)c1ccccc1 please.
0

Try this compound next: CCOC(=O)CC(=O)OCC
0

Try this compound too: c1ccc2c(c1)Oc1ccccc1S2
0

Also, CCC(C)=NO please.
0

O=C(Oc1ccccc1)c1ccccc1 ?
0

Now consider COc1ccc2ccccc2c1 and answer again.
0

Also need Clc1ccc(Sc2cc(Cl)c(Cl)cc2Cl)cc1 , thanks.
0

Repeat for the following compound: O=C(O)c1cc(Cl)cc(Cl)c1O
0

Lookup Brc1ccc(Oc2ccc(Br)cc2)cc1
0

Here is the next compound: COc1cccc(OC)c1C(=O)O
0

Input COC(=O)/C=C\C(=O)OC
0

Another compound to check: O=C(c1ccccc1)c1ccccc1O
0

For CCCCCCC1CCCC(=O)O1 (stereo unspecified) then?
0
